# Tested on: TAB165
# ASSAY_EXPLANATION: qHTS profiling for inhibitors of Plasmodium falciparum proliferation (AID 504749); note: nearly all actives have a fitted effect of over 60% in size
# CONDITION_SUMMARY: P. falciparum in erythrocytes, SYBR Green DNA, 72 h; series mostly up to 28.7 µM
Records with an inconclusive call do not appear. Active and inactive are the calls of the source. Calls come from the whole dose curve; as a rule, active = well fitted inhibition curve with a large enough effect; inconclusive = small, poorly fitted or top-dose-only effect; inactive = flat fitted curve, though single readings scatter.
Field 'call' accepts class 1 = active, class 0 = inactive

O=C(NCCNCC(O)COc1ccc(O)cc1)N1CCOCC1 (stereo unspecified)    class 0

Query string: Check the results log: what was the call for CCOC(C)OCC ?
Result string: class 0

Query string: Check the results log: what was the call for C=Cc1ccc(S(=O)(=O)O)cc1 ?
Result string: class 0

Query string: Check the results log: what was the call for C[C@@](Cc1ccc(O)c(O)c1)(NN)C(=O)O ?
Result string: class 0

Query string: Check the results log: what was the call for CC(CC=O)CCCC(C)(C)O (stereo unspecified) ?
Result string: class 0

Query string: Check the results log: what was the call for O=C(c1cc2ccccc2o1)N1CCN(Cc2ccccc2)CC1 ?
Result string: class 1

Query string: Check the results log: what was the call for CC(=O)Oc1cccc(C(=O)O)c1OC(C)=O ?
Result string: class 0

Query string: Check the results log: what was the call for COc1cc(NCCCC(C)N)c2ncccc2c1 (stereo unspecified) ?
Result string: class 1

Query string: Check the results log: what was the call for CCCOC(=O)c1ccccc1O ?
Result string: class 0

Query string: Check the results log: what was the call for CC(C)c1nc(N(C)S(C)(=O)=O)nc(-c2ccc(F)cc2)c1/C=C/C(O)CC(O)CC(=O)O (stereo unspecified) ?
Result string: class 0

Query string: Check the results log: what was the call for CC1=CCC2CC1C2(C)C (stereo unspecified) ?
Result string: class 0

Query string: Check the results log: what was the call for CCOc1ccc(NC(=S)Nc2ccc(OCC)cc2)cc1 ?
Result string: class 0

Query string: Check the results log: what was the call for C[C@H]1O[C@@H](O[C@H]2[C@@H](O)C[C@H](O[C@H]3[C@@H](O)C[C@H](O[C@H]4CC[C@@]5(C)[C@H](CC[C@@H]6[C@@H]5C[C@@H](O)[C@]5(C)[C@@H](C7=CC(=O)OC7)CC[C@]65O)C4)O[C@@H]3C)O[C@@H]2C)C[C@H](O)[C@@H]1O ?
Result string: class 0
